// reported pIC50 for each item listed
- TEST TARGET: human α1H T-type channels (Homo sapiens, UniProt O95180)
- Construct: expressed in transfected cells; host or cells: HEK 293
- Sequence (O95180 whole entry): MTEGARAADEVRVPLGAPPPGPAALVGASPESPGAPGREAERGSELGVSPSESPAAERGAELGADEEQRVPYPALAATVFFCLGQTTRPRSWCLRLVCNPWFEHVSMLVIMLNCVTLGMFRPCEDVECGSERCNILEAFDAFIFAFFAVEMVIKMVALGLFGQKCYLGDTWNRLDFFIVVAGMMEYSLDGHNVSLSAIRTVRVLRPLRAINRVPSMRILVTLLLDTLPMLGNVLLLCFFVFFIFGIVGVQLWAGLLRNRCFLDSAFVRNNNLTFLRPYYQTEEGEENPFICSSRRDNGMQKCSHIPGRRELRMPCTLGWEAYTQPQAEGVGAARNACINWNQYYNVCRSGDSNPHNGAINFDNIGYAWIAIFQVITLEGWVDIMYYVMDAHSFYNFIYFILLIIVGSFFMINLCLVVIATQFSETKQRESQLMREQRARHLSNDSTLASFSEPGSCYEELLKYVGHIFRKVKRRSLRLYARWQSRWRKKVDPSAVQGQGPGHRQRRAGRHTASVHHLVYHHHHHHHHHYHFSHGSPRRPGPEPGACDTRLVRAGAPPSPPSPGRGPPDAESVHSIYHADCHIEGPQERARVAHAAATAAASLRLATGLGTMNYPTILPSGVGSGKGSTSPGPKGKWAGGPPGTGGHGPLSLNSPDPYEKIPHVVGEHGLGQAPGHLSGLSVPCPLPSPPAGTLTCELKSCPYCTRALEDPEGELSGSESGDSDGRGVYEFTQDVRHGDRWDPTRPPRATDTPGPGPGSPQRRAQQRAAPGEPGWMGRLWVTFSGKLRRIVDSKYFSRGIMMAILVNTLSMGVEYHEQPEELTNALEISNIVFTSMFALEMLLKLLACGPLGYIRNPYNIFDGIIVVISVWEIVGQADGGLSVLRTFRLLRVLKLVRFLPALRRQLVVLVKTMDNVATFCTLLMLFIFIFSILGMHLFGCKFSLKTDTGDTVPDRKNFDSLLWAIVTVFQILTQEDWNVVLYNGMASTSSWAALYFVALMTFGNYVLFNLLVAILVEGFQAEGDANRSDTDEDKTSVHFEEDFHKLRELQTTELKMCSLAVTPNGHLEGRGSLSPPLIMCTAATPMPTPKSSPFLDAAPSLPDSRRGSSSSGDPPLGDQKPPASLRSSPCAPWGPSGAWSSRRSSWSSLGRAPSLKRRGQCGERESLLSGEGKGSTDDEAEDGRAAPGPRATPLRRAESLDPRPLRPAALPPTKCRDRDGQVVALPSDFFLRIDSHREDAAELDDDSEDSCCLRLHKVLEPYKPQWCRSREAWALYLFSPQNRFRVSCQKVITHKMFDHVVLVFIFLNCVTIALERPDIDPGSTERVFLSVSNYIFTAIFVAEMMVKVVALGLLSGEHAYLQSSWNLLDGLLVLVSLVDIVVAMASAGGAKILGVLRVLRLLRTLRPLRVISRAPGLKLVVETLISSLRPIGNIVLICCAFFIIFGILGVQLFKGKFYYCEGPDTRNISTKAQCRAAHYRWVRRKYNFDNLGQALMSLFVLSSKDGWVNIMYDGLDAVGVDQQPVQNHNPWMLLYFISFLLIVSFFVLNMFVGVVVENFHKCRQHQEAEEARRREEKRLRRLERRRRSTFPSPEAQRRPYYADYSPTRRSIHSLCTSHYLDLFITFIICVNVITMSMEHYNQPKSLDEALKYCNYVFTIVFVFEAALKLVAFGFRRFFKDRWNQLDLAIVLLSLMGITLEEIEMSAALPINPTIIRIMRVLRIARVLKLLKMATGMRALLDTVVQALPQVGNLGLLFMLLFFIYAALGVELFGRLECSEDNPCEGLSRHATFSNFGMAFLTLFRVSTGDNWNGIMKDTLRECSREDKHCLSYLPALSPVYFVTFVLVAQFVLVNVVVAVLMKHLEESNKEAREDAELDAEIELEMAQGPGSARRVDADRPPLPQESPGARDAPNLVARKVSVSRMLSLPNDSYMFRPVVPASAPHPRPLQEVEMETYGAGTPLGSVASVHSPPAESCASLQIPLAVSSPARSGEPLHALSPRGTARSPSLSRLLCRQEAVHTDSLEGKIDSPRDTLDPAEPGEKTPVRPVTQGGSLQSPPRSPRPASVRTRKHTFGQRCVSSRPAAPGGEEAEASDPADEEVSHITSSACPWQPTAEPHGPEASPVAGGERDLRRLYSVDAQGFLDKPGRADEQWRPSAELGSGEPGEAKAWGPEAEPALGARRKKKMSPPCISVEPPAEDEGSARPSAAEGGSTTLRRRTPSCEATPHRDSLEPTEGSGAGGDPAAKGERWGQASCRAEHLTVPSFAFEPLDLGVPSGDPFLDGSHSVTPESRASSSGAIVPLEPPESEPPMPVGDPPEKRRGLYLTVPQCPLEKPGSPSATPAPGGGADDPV
- PROCEDURE DETAILS: T-type calcium channel block, whole cell patch clamp in HEK cells (α1H)
- Format: cell-based
- CONDITION DETAILS: HEK cells, patch clamp, mainly non-inactivated protocol; values above 10 μM shown as 10 μM; read-out: T-type Calcium Channel Block α1H IC50
Lab note: report pIC50 as minus log10 of the concentration in molar units, number only.

Answered cases to consult:
COMPOUND: CC(C)(C)NC(=O)CN1CCC(CNC(=O)c2cc(F)cc(C(F)(F)F)c2)CC1 [Compound 376]
RECORDED MEASUREMENT: 6.80
//
COMPOUND: CN(CC(=O)N1CCC(CNC(=O)c2cc(C(F)(F)F)cc(C(F)(F)F)c2)CC1)C1CCCCC1 [Compound 246]
RECORDED MEASUREMENT: 5.95
//
COMPOUND: O=C(NCC1CCN(CC(=O)N2CCCC(O)C2)CC1)c1cc(C(F)(F)F)cc(C(F)(F)F)c1 (centres unmarked) [Compound 98]
RECORDED MEASUREMENT: 5.44
//
COMPOUND: CCOC1CCN(C(=O)CN2CCC(CNC(=O)c3cc(C(F)(F)F)cc(C(F)(F)F)c3)CC2)CC1 [Compound 305]
RECORDED MEASUREMENT: 5.35
//
COMPOUND: CCS(=O)(=O)NC(C)(C)CN1CCC(CNC(=O)c2cc(F)cc(C(F)(F)F)c2)CC1 [Compound 7]
RECORDED MEASUREMENT: 5.36
//
COMPOUND: CC(C)S(=O)(=O)NCCN1CCC(CNC(=O)c2cccc(Br)c2)CC1 [Compound 386]
RECORDED MEASUREMENT: 6.31

Lab note: human α1H T-type channels (Homo sapiens, UniProt O95180) assay, enter pIC50 for O=C(NCC1CCN(CCNS(=O)(=O)C(F)(F)F)CC1)c1cc(F)cc(Cl)c1 [Compound 329] here
5.39

Lab note: human α1H T-type channels (Homo sapiens, UniProt O95180) assay, enter pIC50 for CC1(NC(=O)CN2CCC(CNC(=O)c3cccc(Br)c3)CC2)CCC1 [Compound 480] here
6.74
